Value source: ChEMBL document CHEMBL1127751

Target chain: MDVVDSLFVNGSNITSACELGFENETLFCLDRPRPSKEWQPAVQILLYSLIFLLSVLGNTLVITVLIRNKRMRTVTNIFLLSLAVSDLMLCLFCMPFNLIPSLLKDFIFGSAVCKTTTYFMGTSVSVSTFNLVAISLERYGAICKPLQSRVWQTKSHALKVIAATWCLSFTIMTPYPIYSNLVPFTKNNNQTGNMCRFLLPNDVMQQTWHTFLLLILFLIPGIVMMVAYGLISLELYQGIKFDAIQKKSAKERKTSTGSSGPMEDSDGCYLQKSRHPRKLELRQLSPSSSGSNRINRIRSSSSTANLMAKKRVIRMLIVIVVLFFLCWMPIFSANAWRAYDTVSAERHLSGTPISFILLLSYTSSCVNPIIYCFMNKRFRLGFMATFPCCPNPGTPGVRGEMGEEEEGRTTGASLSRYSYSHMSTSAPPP
Starred links: 1 amine or outer side, 2 acyl side, 3 side chain; linkers in the order of their positions; H or OH if unused. Non-standard residues stand in square brackets, D forms with d. Residues, ends and D or L forms follow the SMILES beside them. Groups on a side chain read outwards from the residue. ξ: configuration not given here. *: point of attachment. ξW = NC(Cc1c[nH]c2ccccc12)C(=O)O; NH(2-Me-phenyl) = Cc1ccccc1N*; β3hP = O=C(O)C[C@@H]1CCCN1; ξF = NC(Cc1ccccc1)C(=O)O; Boc = CC(C)(C)OC(=O)*; CO = O=C([*:1])[*:2]
Kindly state pIC50 for each of the entries shown.
One number for each entry, as −log10 of the molar value.

Use these answered entries as a reference point.
[
  {
    "molecule": "Cc1ccccc1NC(=O)NCCCC[C@H](NC(=O)C(Cc1c[nH]c2ccccc12)NC(=O)OC(C)(C)C)C(=O)N1CCC[C@H]1CC(=O)NC(Cc1ccccc1)C(N)=O (stereo partly drawn) (Boc-[ξW]K([CO-NH(2-Me-phenyl)])[β3hP][ξF]-NH2)",
    "pIC50": 6.62
  },
  {
    "molecule": "Cc1ccccc1NC(=O)NCCCC[C@H](NC(=O)C(Cc1c[nH]c2ccccc12)NC(=O)OC(C)(C)C)C(=O)N(C)CCCC(=O)N(C)C(Cc1ccccc1)C(N)=O (stereo partly drawn)",
    "pIC50": 7.72
  }
]

Provide one value: measured pIC50 of Cc1ccccc1NC(=O)NCCCC[C@H](NC(=O)C(Cc1c[nH]c2ccccc12)NC(=O)OC(C)(C)C)C(=O)NCCCCCC(=O)NC(Cc1ccccc1)C(N)=O (stereo partly drawn) 5.92
